- Tested on: H23
- procedure-text: in vitro
- measurement-setup: read-out: EC50 viability, 3.10; human, 48 h
measurement-kind: CC50

Lookup: Return value of CC50 for input OB(O)c1cc(Br)cc(Oc2ccccc2)c1 , no commentary.
Found: > 100 µM

* * *

- procedure-text: in vitro
- measurement-setup: human, 263t cells
measurement-kind: CC50 at 48 h

Lookup: Input OB(O)c1cc(Br)cc(N2CCCC2)c1 [compound 3] , output reported CC50 at 48 h.
Found: > 100 µM

* * *

- Tested on: MDA-MB-231
- procedure-text: in vitro
- measurement-setup: read-out: EC50 viability, 3.10; human, 48 h
measurement-kind: CC50

Lookup: Return CC50 (reported value) for this compound: OB(O)c1cc(Br)cc(Oc2ccccc2)c1
Found: > 100 µM

* * *

- Tested on: HT29
- procedure-text: in vitro
- measurement-setup: read-out: EC50 viability, 3.10; human, 48 h
measurement-kind: CC50

Lookup: Please give the documented CC50 of OB(O)c1cc(Br)cc(Oc2ccccc2)c1 [3.10, compound 3.10]
Found: > 100 µM

* * *

Below: a set of entries, each annotated with reported pKi.
- tgt: human carboxylesterase 1 (CES1, hCES1) (Homo sapiens)
Quick note: pKi means taking -log10 of the concentration in moles per liter.

Lookup: Identify pKi associated with the compound OB(O)c1cc(Br)cc(N2CCCC2)c1 [compound 3]
Found: 8.39

Lookup: Note pKi for the compound shown: OB(O)c1cc(Br)cc(Oc2ccccc2)c1 [3.10, compound 3.10]
Found: 8.96

* * *

Collected pIC50 values appear next to each entry.
- tgt: human carboxylesterase 1 (CES1, hCES1) (Homo sapiens)
- Sequence (P23141 18-567): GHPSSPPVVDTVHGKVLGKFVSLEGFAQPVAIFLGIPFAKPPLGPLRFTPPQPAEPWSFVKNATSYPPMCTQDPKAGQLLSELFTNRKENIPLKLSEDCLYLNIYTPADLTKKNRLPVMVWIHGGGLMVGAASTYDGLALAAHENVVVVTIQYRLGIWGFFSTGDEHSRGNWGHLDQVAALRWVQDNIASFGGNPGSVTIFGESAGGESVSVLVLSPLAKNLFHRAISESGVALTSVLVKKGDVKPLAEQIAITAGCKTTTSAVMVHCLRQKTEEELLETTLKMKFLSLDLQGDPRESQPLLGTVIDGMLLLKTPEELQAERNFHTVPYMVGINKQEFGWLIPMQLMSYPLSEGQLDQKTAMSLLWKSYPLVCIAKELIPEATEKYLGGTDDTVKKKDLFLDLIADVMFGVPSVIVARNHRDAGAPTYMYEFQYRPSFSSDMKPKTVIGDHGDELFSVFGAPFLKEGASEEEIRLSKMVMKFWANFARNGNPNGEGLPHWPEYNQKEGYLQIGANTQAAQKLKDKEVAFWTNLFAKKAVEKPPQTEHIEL
API: returns pIC50 as number; meaning -log10 of concentration in mol/L.

OB(O)c1cc(Br)cc(Oc2ccccc2)c1 [3.10, compound 3.10] | 8.70

Okay, now this compound:
Lookup: Input OB(O)c1cc(Br)cc(N2CCCC2)c1 [compound 3] , output reported pIC50.
Found: 8.13

* * *

Values of pIC50 reported for human AChE (acetylcholinesterase) (Homo sapiens) appear below.
Note on pIC50: it is the negative log10 of concentration, concentration in mol/L.

OB(O)c1cc(Br)cc(Oc2ccccc2)c1 | 4.64

Let us examine a further case.
Lookup: Give the measured pIC50 for OB(O)c1cc(Br)cc(N2CCCC2)c1
Found: 4.21

* * *

- procedure-text: in vitro
- measurement-setup: human, EC50 viability, 3.10
measurement-kind: CC50 at 48 h

Lookup: Supply reported CC50 at 48 h belonging to this molecule: OB(O)c1cc(Br)cc(Oc2ccccc2)c1 [3.10, compound 3.10]
Found: > 100 µM

* * *

- Tested on: Colo205
- procedure-text: in vitro
- measurement-setup: read-out: EC50 viability, 3.10; human, 48 h
measurement-kind: CC50

Lookup: Assign CC50 to the following record: OB(O)c1cc(Br)cc(Oc2ccccc2)c1
Found: > 100 µM

* * *

Target chain: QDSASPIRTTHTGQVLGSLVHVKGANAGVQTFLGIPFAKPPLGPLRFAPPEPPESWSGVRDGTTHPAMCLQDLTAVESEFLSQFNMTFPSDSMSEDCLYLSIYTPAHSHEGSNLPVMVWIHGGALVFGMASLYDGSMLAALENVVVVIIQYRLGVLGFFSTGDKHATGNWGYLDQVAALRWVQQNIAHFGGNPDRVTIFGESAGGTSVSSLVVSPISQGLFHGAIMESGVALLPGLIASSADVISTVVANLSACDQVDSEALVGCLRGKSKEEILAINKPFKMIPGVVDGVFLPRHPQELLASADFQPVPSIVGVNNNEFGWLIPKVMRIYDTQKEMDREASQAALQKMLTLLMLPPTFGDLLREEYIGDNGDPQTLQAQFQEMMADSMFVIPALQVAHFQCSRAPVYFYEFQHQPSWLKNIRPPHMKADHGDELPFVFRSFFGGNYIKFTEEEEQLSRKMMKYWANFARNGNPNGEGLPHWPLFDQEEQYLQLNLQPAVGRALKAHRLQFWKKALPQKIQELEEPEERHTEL
measurement-kind: pKi
Expect pKi as a plain number equal to -log10 of the molar concentration.

OB(O)c1cc(Br)cc(Oc2ccccc2)c1 [3.10, compound 3.10] | 8.68

Below: the item to evaluate.
Lookup: Supply pKi value. Item: OB(O)c1cc(Br)cc(N2CCCC2)c1 [compound 3]
Found: 7.68

* * *

- System: HeLa
- procedure-text: in vitro
- measurement-setup: read-out: EC50 viability, 3.10; human, 48 h
measurement-kind: CC50

Lookup: Please list CC50 recorded for the compound OB(O)c1cc(Br)cc(Oc2ccccc2)c1 [3.10, compound 3.10]
Found: > 100 µM

* * *

- System: HTC116
- procedure-text: in vitro
- measurement-setup: read-out: EC50 viability, 3.10; human, 48 h
measurement-kind: CC50

Lookup: Consider the compound OB(O)c1cc(Br)cc(Oc2ccccc2)c1 tested on HTC116; state its CC50.
Found: > 100 µM

Cited source: paper doi:10.1101/161430v2
